measured on: G12V-mutant human KRAS (amino acid residues 1-188) (Homo sapiens, UniProt P01116, G12V)
Construct: G12V-mutant human KRAS (amino acid residues 1-188) with FLAG tag was purified from E. coli; made in house; host or cells: E. coli
experiment notes: KRAS Binding Competition Assay (AlphaScreen; biotinylated KRpep-2d analogue), G12V
experimental conditions: geometric mean, read-out: KRAS GMean IC50 (uM) MUTATION: G12V
Listing of recorded IC50 by entry.
measurement type: IC50

• CN1CCC[C@H]1COc1nc(N2[C@@H]3CC[C@H]2CN(C(=O)CCC(N)=O)C3)c2ccc(-c3cc(O)cc4ccccc34)cc2n1 [P-0218] = 10 to 100 µM
• Cc1ccc2[nH]ncc2c1-c1c(F)cc2c(N3C[C@H]4CC[C@@H](C3)N4)nc(OC[C@@H]3CCCN3C)nc2c1F [P-0303] = 10 to 100 µM
• CC(=O)Nc1ccc(F)c(-c2ccc3c(N4C[C@H]5CC[C@@H](C4)N5)nc(OC[C@@H]4CCCN4C)nc3c2)c1 [P-0167] = 100 to 1000 µM
• Oc1cc(-c2c(Cl)cc3c(N4C[C@H]5CC[C@@H](C4)N5)nc(OCC45CCCN4CC(F)(F)C5)nc3c2F)c2ccccc2c1 (stereo partly shown) [P-0047] = 0.0001 to 10 µM
• Oc1cc(-c2ccc3c(N4C[C@H]5CC[C@@H](C4)N5)nc(OCC45CCCN4CCC5)nc3c2)c2ccccc2c1 [P-0002] = 0.0001 to 10 µM
• O=C(C1C2CCC1CNC2)N1[C@@H]2CC[C@H]1CN(c1nc(OCC34CCCN3CCC4)nc3c(F)c(-c4cc(O)cc5ccccc45)ccc13)C2 (stereo partly shown) [P-0147] = 0.0001 to 10 µM
• CN1CCC[C@H]1COc1nc(N2[C@@H]3CC[C@H]2CN(C(=O)c2ncc[nH]2)C3)c2ccc(-c3cc(O)cc4ccccc34)cc2n1 [P-0224] = 0.0001 to 10 µM
• CN1CCC[C@H]1COc1nc(N2[C@@H]3CC[C@H]2CN(C(=N)NC#N)C3)c2ccc(-c3cc(O)cc4ccccc34)cc2n1 [P-0349] = 0.0001 to 10 µM
• CN1CCN(CCCS(=O)(=O)N2[C@@H]3CC[C@H]2CN(c2nc(OC[C@@H]4CCCN4C)nc4c(F)c(-c5cc(O)cc6ccccc56)ccc24)C3)CC1 [P-0434] = 10 to 100 µM
• CN1CCC[C@H]1COc1nc(N2C[C@H]3CC[C@@H](C2)N3)c2ccc(-c3cnn4ccccc34)cc2n1 [P-0178] = 100 to 1000 µM
• O=C(N[C@@H]1CCNC1)N1[C@@H]2CC[C@H]1CN(c1nc(OCC34CCCN3CCC4)nc3cc(-c4cc(O)cc5ccccc45)ccc13)C2 [P-0122] = 0.0001 to 10 µM
• CN1CCC[C@H]1COc1nc(N2[C@@H]3CC[C@H]2CN(C(=O)Cc2cnn(C)c2)C3)c2ccc(-c3cc(O)cc4ccccc34)cc2n1 [P-0228] = 100 to 1000 µM
• Cc1cccc2c(O)nn(-c3ccc4c(N5C[C@H]6CC[C@@H](C5)N6)nc(OC[C@@H]5CCCN5C)nc4c3F)c12 [P-0462] = 10 to 100 µM
